Below, each entry is listed with its recorded growth.
# System: HS 578T breast
# TEST METHOD NOTES: NCI-60 one-dose screen, 48 h (100 = growth as untreated, 0 = no growth, -100 = all killed)
# CONDITION SET: 10 µM unless noted
Compounds without any hit were thinned out: in the full panel of roughly 83,000, 20% have a hit.
// note: answer is a bare numeric in %

Guide cases for growth, answers given:
Reported growth for [2H]C([2H])([2H])Oc1ccc(F)cc1/C=C/C(=O)/C=C(/C=C/c1cc(F)ccc1OC([2H])([2H])[2H])OB(F)F was 91.9

Reported growth for CCCC(CC)(C(=O)Nc1ccc2nc(C)cc(N)c2c1)C(=O)Nc1ccc2nc(C)cc(N)c2c1 was 106

Reported growth for O=C1c2ccccc2C(=O)c2c1c(C(=O)NCc1ccccc1)c1ccccn21 was 97.9

---
Reported growth for O=C(NCc1cccc(CNC(=O)Nc2nc3ccccc3[nH]2)c1)Nc1nc2ccccc2[nH]1 was -15.3

Reported growth for CCCCCCCC/C=C\CCCCCCCCOc1ccc(CC(=O)NCC[N+]2(C)CCOCC2)cc1 was 72.5

Reported growth for C[C@H](C(=O)N(CCc1ccc(Cl)c(Cl)c1)Cc1cncs1)[C@@H]1CC[C@H](C[C@H](C)n2cc(CN3CCC(c4ccc(Cl)cc4)CC3)nn2)O1 was 98.7

Reported growth for Nc1nc(NC(=O)Nc2ccc(C(=O)O)cc2)nn1-c1ccc(S(N)(=O)=O)cc1 was 88.1

Reported growth for CC(C)(C)c1cc(Cl)c(O)c(CNCCO)c1 was 82.7

Reported growth for COc1ccc(NC(=O)Nc2ccc(OCCCCCC(=O)NO)cc2)cc1 was 94.1

Reported growth for O=C(CN1CCN(c2cc3c(cc2F)c(=O)c(C(=O)O)cn3C2CC2)CC1)N/N=C/c1ccco1 was 95.5

Reported growth for CC1(C)CC[C@]2(CO)CC[C@]3(C)[C@H](CC[C@@H]4[C@@]5(C)CCCNC(C)(C)[C@@H]5CC[C@]43C)[C@H]2[C@H]1O was 83.5

Reported growth for CN(C)S(=O)(=O)Oc1ccc(-c2sc3cc(OS(=O)(=O)N(C)C)ccc3c2C(=O)c2ccc(OCCN3CCCCC3)cc2)cc1 was 59.7

Reported growth for O=C(NC(Cc1nnc2n(Cc3ccccc3)c(=O)c3c4c(sc3n12)CCCC4)c1ccccc1)c1ccccc1 (stereo not drawn) was 101

Reported growth for C=C(C)[C@@H]1CC[C@]2(C(N)=O)CC[C@]3(C)[C@H](CC[C@@H]4[C@@]5(C)CC[C@H](OCCC#N)C(C)(C)[C@@H]5CC[C@]43C)[C@@H]12 was 88.3

Reported growth for Cc1ccc(C(=O)c2ccc(CC(=O)NN3C(=O)c4ccccc4C3=O)n2C)cc1 was 104

Reported growth for O=C(Nc1ccccc1[N+](=O)[O-])c1ccc(Cl)c(Cl)c1 was 87.8

Reported growth for CN(C)c1ccc(-c2nc(-c3ccccc3)c(-c3ccccc3)[nH]2)cc1 was 103

Reported growth for Nc1c(C(=O)Nc2cccc(Cl)c2)sc2nc3c(cc12)CCCC3 was 97.7
